Entries and their Test C disease control rating
Test system: Septoria tritici
Experiment: Test C: preventive spray on wheat seedlings, Septoria tritici (wheat leaf blotch), visual disease rating
Type: in vivo
Settings: 100 = 100% disease control, 0 = no control, unmarked values

# compound, u, Test C disease control rating
measured = [
    ("O=C(Nc1ccccc1-c1cnc(-n2ccc(C(F)(F)F)n2)c(F)c1)c1ncsc1C(F)(F)F", "%", 99),
    ("Cc1cnn(-c2ccc(-c3ccccc3NC(=O)c3cn(C)nc3C(F)F)cn2)c1", "%", 100),
    ("COc1cc(OC)cc(C2CC(c3ccc(-c4ccccc4NC(=O)c4ncccc4C(F)(F)F)cn3)=NO2)c1 (racemic)", "%", 96),
    ("Cc1ccsc1C(=O)Nc1ccccc1-c1cnc(-n2ccc(C(F)(F)F)n2)c(F)c1", "%", 99),
    ("Cc1cc(-c2ccccc2NC(=O)c2cn(C)nc2C(F)F)cnc1-n1cc(Cl)cn1", "%", 100),
    ("O=C(Nc1ccccc1-c1cnc(-n2ccc(C(F)(F)F)n2)c(Cl)c1)c1ccccc1C(F)F", "%", 99),
    ("O=C(Nc1ccccc1-c1ccc(-n2ccc(C(F)(F)F)n2)nc1)c1ncccc1C(F)(F)F", "%", 100),
    ("O=C(Nc1ccccc1-c1cnc(-n2ccc(Cl)n2)c(F)c1)c1ncccc1C(F)(F)F", "%", 100),
]

* * *

Test system: Septoria tritici
Test: Test C: preventive spray on wheat seedlings, Septoria tritici (wheat leaf blotch), visual disease rating
Format: in vivo
Details: 100 = 100% disease control, 0 = no control, unmarked values
Entries and their Test C disease control rating

# compound, test system, Test C disease control rating
measured = [
    ("O=C(Nc1ccccc1-c1ccc(-n2cc(-c3cccc(F)c3)cn2)nc1)c1ncccc1C(F)(F)F", "Septoria tritici", "100%"),
    ("Cc1cnn(-c2ccc(-c3ccccc3NC(=O)c3ccccc3C(F)(F)F)cn2)c1 [compound 43]", "Septoria tritici", "98%"),
    ("Cc1cc(C)n(-c2ccc(-c3ccccc3NC(=O)c3ncccc3C(F)(F)F)cn2)n1", "Septoria tritici", "99%"),
    ("COc1cccc(C2CC(c3ccc(-c4ccccc4NC(=O)c4ncccc4C(F)(F)F)cn3)=NN2C)c1 (centres unmarked)", "Septoria tritici", "89%"),
    ("O=C(Nc1ccccc1-c1ccc(-n2ccc(C(F)(F)F)n2)nc1)c1nccnc1C(F)(F)F", "Septoria tritici", "100%"),
]

* * *

Entries and their Test D disease control rating
Tested on: Puccinia recondite f. sp. tritici
Assay: Test D: preventive spray on wheat seedlings, Puccinia recondite f. sp. tritici (wheat leaf rust), visual disease rating
Assay type: in vivo
Conditions: values marked with asterisk (*), meaning not given
Marks after values point to notes of the source that are not given here.

# compound, Test D disease control rating
measured = [
    ("O=C(NCCc1ncc(-n2ccc(Br)n2)cn1)c1ncccc1C(F)(F)F [Compound 179]", "0* %"),
    ("O=C(Nc1ccccc1-c1cnc(-n2ccc(C(F)(F)F)n2)c(Cl)c1)c1sccc1F [compound 176]", "0* %"),
    ("O=C(NCCc1ncc(-n2cc(Br)cn2)cn1)c1ncccc1C(F)(F)F [Compound 180]", "0* %"),
]

* * *

Tested on: Puccinia recondite f. sp. tritici
Test: Test D: preventive spray on wheat seedlings, Puccinia recondite f. sp. tritici (wheat leaf rust), visual disease rating
Type: in vivo
Details: 100 = 100% disease control, 0 = no control, unmarked values

# compound, test system, Test D disease control rating
records = [
    ("Cc1cnn(-c2ccc(-c3ccccc3NC(=O)c3cn(C)nc3C(F)F)cn2)c1", "Puccinia recondite f. sp. tritici", "100%"),
    ("Cc1cc(-c2ccccc2NC(=O)c2ccccc2C(F)(F)F)cnc1-n1ccc(C(F)(F)F)n1", "Puccinia recondite f. sp. tritici", "100%"),
    ("CC1=C(C(=O)Nc2ccccc2-c2cnc(-n3ccc(C(F)(F)F)n3)c(F)c2)S(=O)(=O)CCO1", "Puccinia recondite f. sp. tritici", "100%"),
    ("Cn1cc(C(=O)Nc2ccccc2-c2ccc(-n3ccc(-c4cc(F)cc(F)c4)n3)nc2)c(C(F)F)n1", "Puccinia recondite f. sp. tritici", "100%"),
    ("Cn1cc(C(=O)Nc2ccccc2-c2cnc(-n3ccc(Cl)n3)c(F)c2)c(C(F)F)n1", "Puccinia recondite f. sp. tritici", "100%"),
    ("N#Cc1ccn(-c2ncc(-c3ccccc3NC(=O)c3ncccc3C(F)(F)F)cc2F)n1", "Puccinia recondite f. sp. tritici", "100%"),
    ("O=C(Nc1ccccc1-c1ccc(-n2cc(Br)cn2)nc1)c1ncccc1C(F)(F)F", "Puccinia recondite f. sp. tritici", "99%"),
    ("Cc1cc(-c2ccccc2NC(=O)c2cn(C)nc2C(F)F)cnc1-n1ccc(C(F)(F)F)n1", "Puccinia recondite f. sp. tritici", "100%"),
    ("Cc1ccc(-c2ccc(-c3ccccc3NC(=O)c3cn(C)nc3C(F)F)cn2)s1", "Puccinia recondite f. sp. tritici", "100%"),
    ("O=C(Nc1ccccc1-c1ccc(-n2cccn2)nc1)c1ncccc1C(F)(F)F", "Puccinia recondite f. sp. tritici", "99%"),
    ("COc1cccc(C2CC(c3ccc(-c4ccccc4NC(=O)c4ncccc4C(F)(F)F)cn3)=NO2)c1 (racemic)", "Puccinia recondite f. sp. tritici", "99%"),
    ("Cn1cc(C(=O)Nc2ccccc2-c2ccc(-n3ccc(-c4ccc(F)cc4)n3)nc2)c(C(F)F)n1", "Puccinia recondite f. sp. tritici", "100%"),
    ("Cn1cc(C(=O)Nc2ccccc2-c2cnc(-n3ccc(C(F)F)n3)c(F)c2)c(C(F)F)n1", "Puccinia recondite f. sp. tritici", "100%"),
    ("Cn1cc(C(=O)Nc2ccccc2-c2ccc(-n3cc(-c4ccccc4F)cn3)nc2)c(C(F)F)n1", "Puccinia recondite f. sp. tritici", "100%"),
    ("O=C(Nc1ccccc1-c1cnc(-n2cc(Cl)cn2)c(F)c1)c1ncccc1C(F)(F)F", "Puccinia recondite f. sp. tritici", "100%"),
    ("O=C(Nc1ccccc1-c1cnc(-n2ccc(-c3ccccc3)n2)c(F)c1)c1ncccc1C(F)(F)F", "Puccinia recondite f. sp. tritici", "97%"),
]
